// provenance: paper PMC11470957

B1: KLHDC2 substrate binding domain (KLHDC2^SBD, 15-361) [not stated] / BRD3^BD2 (second bromodomain of BRD3, residues 306-416) [not stated] (parent)
chain 1: GPAFESYESMELACPAERSGHVAVSDGRHMFVWGGYKSNQVRGLYDFYLPREELWIYNMETGRWKKINTEGDVPPSMSGSCAVCVDRVLYLFGGHHSRGNTNKFYMLDSRSTDRVLQWERIDCQGIPPSSKDKLGVWVYKNKLIFFGGYGYLPEDKVLGTFEFDETSFWNSSHPRGWNDHVHILDTETFTWSQPITTGKAPSPRAAHACATVGNRGFVFGGRYRDARMNDLHYLNLDTWEWNELIPQGICPVGRSWHSLTPVSSDHLFLFGGFTTDKQPLSDAWTYCISKNEWIQFNHPYTEKPRLWHTACASDEGEVIVFGGCANNLLVHHRAAHSNEILIFSVQP
chain 2: GKLSEHLRYCDSILREMLSKKHAAYAWPFYKPVDAEALELHDYHDIIKHPMDLSTVKRKMDGREYPDAQGFAADVRLMFSNCYKYNPPDHEVVAMARKLQDVFEMRFAKMP

variants of: B1; experiment: ITC; conditions: with BRD3^BD2 (second bromodomain of BRD3, residues 306-416); syringe: R56A KLHDC2SBD; cell: BRD3BD2-SJ46421 (ternary complex via PROTAC SJ46421); n = 2
measured.parameter: Kd (nM)
Please state the figure in nM; there is no need to write the unit.

Return the recorded Kd value; entry: chain 1 R42A
273
